Molecular target: full-length USP7 (Homo sapiens (Human), UniProt Q93009)
Sequence (Q93009 whole entry): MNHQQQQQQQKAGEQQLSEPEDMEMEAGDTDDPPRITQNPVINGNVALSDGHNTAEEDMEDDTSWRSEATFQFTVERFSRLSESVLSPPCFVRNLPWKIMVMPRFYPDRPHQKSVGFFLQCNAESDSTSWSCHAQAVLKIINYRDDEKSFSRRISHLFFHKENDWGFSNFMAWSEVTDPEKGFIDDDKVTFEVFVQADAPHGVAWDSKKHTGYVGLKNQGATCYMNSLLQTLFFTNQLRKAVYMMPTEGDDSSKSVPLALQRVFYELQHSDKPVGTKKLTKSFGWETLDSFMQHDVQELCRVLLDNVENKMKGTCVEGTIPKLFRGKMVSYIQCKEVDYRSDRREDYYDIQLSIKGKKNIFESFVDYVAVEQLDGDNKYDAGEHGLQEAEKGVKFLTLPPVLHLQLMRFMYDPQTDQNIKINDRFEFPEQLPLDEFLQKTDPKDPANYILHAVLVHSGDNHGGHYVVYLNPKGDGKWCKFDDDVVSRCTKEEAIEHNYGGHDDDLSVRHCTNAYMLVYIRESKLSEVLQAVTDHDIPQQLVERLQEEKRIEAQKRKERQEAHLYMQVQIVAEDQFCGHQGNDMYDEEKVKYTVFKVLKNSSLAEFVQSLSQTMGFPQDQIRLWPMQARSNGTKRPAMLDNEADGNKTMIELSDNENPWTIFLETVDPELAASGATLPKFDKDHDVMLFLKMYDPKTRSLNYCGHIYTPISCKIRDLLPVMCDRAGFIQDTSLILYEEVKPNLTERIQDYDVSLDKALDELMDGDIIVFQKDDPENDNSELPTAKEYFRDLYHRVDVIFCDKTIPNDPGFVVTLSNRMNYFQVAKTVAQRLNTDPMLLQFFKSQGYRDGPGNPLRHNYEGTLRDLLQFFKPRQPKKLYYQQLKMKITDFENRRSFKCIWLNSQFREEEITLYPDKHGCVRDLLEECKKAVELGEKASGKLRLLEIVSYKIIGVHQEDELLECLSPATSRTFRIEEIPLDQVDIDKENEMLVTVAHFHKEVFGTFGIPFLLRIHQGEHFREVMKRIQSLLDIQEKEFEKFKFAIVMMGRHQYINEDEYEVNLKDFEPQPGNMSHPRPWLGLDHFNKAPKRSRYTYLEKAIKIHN
pIC50: −log10 of the molar value. Structures can show the parent of a compound that is named as a salt.
Reported property: pIC50

Consider the worked cases shown below.
>  <Compound>
Cc1ccnc(-c2ccnc3cc(CN4C(=O)C5C(C4=O)C5(C)C)sc23)c1C(O)[C@@H]1CNCCO1 (single isomer, unassigned) [Example 100, 2,2,2-trifluoroacetate]

>  <pIC50>
5.00 to 6.00

$$$$
>  <Compound>
CCN[C@H]1CCN(C(=O)c2c(C)cc(C(F)(F)F)nc2-c2ccnc3cc(CN4C(=O)C5C(C4=O)C5(C)C)sc23)C1 (stereo partly drawn) [Example 73, dihydrochloride]

>  <pIC50>
> 6.30

$$$$
>  <Compound>
Cc1cc(C)c(NC(=O)C2CNC2)c(-c2ccnc3cc(CN4C(=O)C5C(C4=O)C5(C)C)sc23)n1 (stereo not drawn) [Example 133, 2,2,2-trifluoroacetate]

>  <pIC50>
5.00 to 6.00

$$$$
>  <Compound>
Cc1cc(C(F)(F)F)nc(-c2ccnc3cc(CN4C(=O)C5C(C4=O)C5(C)C)sc23)c1C(=O)N1CCN(C)C[C@@H]1C (stereo partly drawn) [Example 79, hydrochloride]

>  <pIC50>
> 6.30

$$$$
>  <Compound>
Cc1cc(C(F)(F)F)nc(-c2ccnc3cc(CN4C(=O)C5C(C4=O)C5(C)C)sc23)c1C(=O)N1CC[C@H](O)C1 (stereo partly drawn) [Example 113, hydrochloride]

>  <pIC50>
> 6.30

$$$$

Next item in the queue.
Query block: // fetch full-length USP7 (Homo sapiens (Human), UniProt Q93009) pIC50 for Cc1cc(C(F)(F)F)nc(-c2ccnc3cc(CN4C(=O)C5C(C4=O)C5(C)C)sc23)c1C(=O)N1CCN(C)CC1 (stereo not drawn) [Example 80, dihydrochloride]
Result block: > 6.30
